Values compiled from PubChem BioAssay AID504523.

- systemUnderTest: Kelch-like ECH-associated protein 1 (Homo sapiens) (UniProt Q14145)
- Sequence (Q14145 whole entry, looked up, the tested form may be a part): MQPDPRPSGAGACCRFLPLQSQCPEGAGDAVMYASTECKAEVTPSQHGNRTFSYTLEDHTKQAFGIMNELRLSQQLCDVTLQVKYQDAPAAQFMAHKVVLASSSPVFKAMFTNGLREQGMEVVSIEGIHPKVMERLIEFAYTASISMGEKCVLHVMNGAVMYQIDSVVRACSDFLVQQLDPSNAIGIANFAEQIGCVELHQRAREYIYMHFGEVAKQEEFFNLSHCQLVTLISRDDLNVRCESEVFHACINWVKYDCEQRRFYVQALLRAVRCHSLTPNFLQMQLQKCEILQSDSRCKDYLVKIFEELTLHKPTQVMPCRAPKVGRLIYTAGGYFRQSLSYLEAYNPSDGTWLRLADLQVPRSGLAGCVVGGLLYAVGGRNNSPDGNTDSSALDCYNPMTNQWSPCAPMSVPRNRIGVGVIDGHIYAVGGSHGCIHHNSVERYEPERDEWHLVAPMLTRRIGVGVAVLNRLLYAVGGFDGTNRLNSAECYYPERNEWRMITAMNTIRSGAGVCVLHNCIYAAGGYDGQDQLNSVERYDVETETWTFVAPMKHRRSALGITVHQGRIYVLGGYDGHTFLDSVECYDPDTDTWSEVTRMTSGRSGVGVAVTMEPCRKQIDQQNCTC
- procedureText: Keap1-Nrf2 protein-protein interaction inhibitors, primary screen, biochemical, fluorescence polarization, single point (AID 504523);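 note: human Keap1 Kelch domain with fluorescein labeled Nrf2 9mer peptide probe; 0% = neutral control wells and 100% = peptide positive control; higher means more block of Keap1 binding to Nrf2 peptide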
- assaySetup: Keap1 Kelch-Nrf2 peptide fluorescence polarization, 1536-well; at 9.4 µM; active compounds read high
Hit rate of the full screen: of about 340,000 compounds, about 490 (0.14%) were called active. Only a selection was taken, and actives are over-represented in it overall.
The following compounds are shown together with reported inhibition values.
measuredProperty: inhibition (%)

CCCCC(=O)Nc1ccc(C(=O)NCCCn2ccnc2)cc1	-4.02
CC(OC(=O)c1ccccc1OCc1ccc(Cl)cc1)C(N)=O (stereo unspecified)	-6.61
O=C(C1=C(O)C(=O)N(CCOCCO)C1c1ccccn1)c1cccs1 (stereo unspecified)	5.97
CC1Cc2cc(/C(O)=C3\C(=O)C(=O)N(Cc4cccnc4)C3c3ccccc3F)ccc2O1 (stereo unspecified)	-1.04
O=C(Cc1ccc(Cl)cc1)NCc1nc(-c2ccccc2)no1	-0.917
Cc1ccc(CC2CC(=O)N(c3nc(C)cc(C)n3)C2=O)cc1 (stereo unspecified)	1.11
COc1ccccc1CNC(=O)C1Cc2ccccc2C(=O)O1 (stereo unspecified)	0.554
Nc1ccccc1SC(C[N+](=O)[O-])c1ccccc1 (stereo unspecified)	-4.52
Cc1c(C(=O)NC(=S)NCc2cccnc2)oc2ccccc12	-0.251
COc1ccc(NC(=O)CN(C)C(=O)c2n[nH]c3ccccc23)cc1	0.904
CCCN(CCC)C(=O)C1c2ccccc2Oc2ccccc21	56.3
CCCCNC(=O)C1CCCN(S(=O)(=O)c2ccc(S(=O)(=O)NCC(C)C)cc2)C1 (stereo unspecified)	-0.397
O=C(/C=C/c1cc2c(cc1Br)OCO2)NCc1ccc(Cl)cc1	-0.718
CCOC(=O)c1c(NC(=O)CSc2nnc(CNc3ccc(C)cc3C)o2)sc(C)c1C	3.69
Cc1cccc(C2c3c(n(C)c(=O)n(C)c3=O)N=C3c4ccccc4C(=O)C32)c1 (stereo unspecified)	-0.0535
O=C1CC(Cc2ccccc2)C(=O)N1c1ccc(Cl)cn1 (stereo unspecified)	-0.813
Cc1onc(-c2ccc(Cl)cc2)c1-c1ccnn1S(=O)(=O)c1ccc(Cl)cc1	-1.71
COc1ccc(S(=O)(=O)N2C[C@H]3CON(C)[C@H]3C[C@H]2c2cccc(Br)c2)cc1	-1.34
COC1=CC(=O)OC(C)(c2ccccc2)C1 (stereo unspecified)	1.18
COCCCNC(=O)C1CCC(CNS(=O)(=O)c2ccc(OC)cc2)CC1 (stereo unspecified)	0.471
CC1(C)CC(=O)C(N=Nc2c(F)cccc2F)=C(O)C1	37.8
Cc1ccc(F)cc1NC(=O)N1CCCN(c2ccc(C(F)(F)F)cn2)CC1	-5.94
CCCC(=O)Nc1ccc(C(=O)NCCCn2ccnc2)cc1	6
NC(=O)c1ccccc1N=Cc1ccc2ccccc2c1	-5.11
CC(O)c1ccc(OCCN(C)c2ccccn2)cc1 (stereo unspecified)	2.21
CCOC(=O)CC(NC(=O)C1c2ccccc2Oc2ccccc21)c1ccc(C)cc1 (stereo unspecified)	-0.485
c1ccc(CN=C2Nc3ccccc3CS2)nc1	-0.423
C=CCOC(=O)N1CCC2CC1c1cc(-c3ccc(OC)cc3)ccc12 (stereo unspecified)	-0.448
CCCc1nnc(NC(=O)CCC(=O)NC2CC2)s1	-3.82
COc1ccc(Nc2nc(-c3cccnc3)nc3ccccc23)cn1	20.8
COC(=O)c1ccc(NC(=S)Nc2cccc(C)n2)cc1	1.2
S=c1nc2ccccc2c2nc(-c3cccnc3)[nH]n12	-0.541
CSCC[C@H](NC(=O)CCCn1nnc2ccccc2c1=O)C(=O)O	-3.2
COc1ccccc1NC(=O)CCN1CCN(c2ccc(Cl)cc2)CC1	2.69
Cc1cccc(NS(=O)(=O)c2ccc(C)c(C(N)=O)c2)c1	-6.17
CCOC(=O)C1(Cc2ccc(Cl)cc2)CCN(C(=O)C2=NNC(=O)CC2)CC1	0.91
COc1ccc(C2/C=C\CN(S(=O)(=O)c3cccs3)CC(=O)N2Cc2ccc(F)cc2)cc1 (stereo unspecified)	-0.104
COc1ccc(C2C(C#N)=C(N)Oc3cc(N)ccc32)cc1OC (stereo unspecified)	-3.33
Nc1ccc2nc3c(=O)[nH]c(=S)[nH]c3nc2c1	39
CCOc1cc(CNCc2ccccn2)ccc1OCC(=O)NC(C)(C)C	-3.19
Cc1cccc(N=Nc2c(O)[nH]c3ccc(F)cc23)c1	0.392
CC1(C)CC(=O)C(C2=NC(C)(C)Cc3ccccc32)=C(O)C1	-1.79
COC(C[C@H](O)CC(=O)COCc1ccccc1)OC	-0.107
Cc1ccc(-n2ncc(C(=O)NC3CC3)c2C2CCN(C(=O)OC(C)(C)C)CC2)c(C)c1	-3.33
COc1ccc(CNCCCO)cc1OC	-3.09
Cc1ccc2nc(NC(=O)C3CSC4(C)CCC(=O)N34)sc2c1 (stereo unspecified)	-0.772
